kd var/kd wt listing for selected binders.
Target: T1, human TGFβ3 (human, UniProt P10600 301-412)
T1 sequence: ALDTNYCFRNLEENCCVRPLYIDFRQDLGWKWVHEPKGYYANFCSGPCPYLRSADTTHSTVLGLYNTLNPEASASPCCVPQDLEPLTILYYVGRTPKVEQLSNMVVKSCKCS
Experiment: Biacore off-rate vs wt GC1008, 50 nM

{"binder": "E74C (antibody, V domains shown, GC1008 IgG4 variant) VH: QVQLVQSGAEVKKPGSSVKVSCKASGYTFSSNVISWVRQAPGQGLEWMGGVIPIVDIANYAQRFKGRVTITADCSTSTTYMELSSLRSEDTAVYYCASTLGLVLDAMDYWGQGTLVTVSS VL: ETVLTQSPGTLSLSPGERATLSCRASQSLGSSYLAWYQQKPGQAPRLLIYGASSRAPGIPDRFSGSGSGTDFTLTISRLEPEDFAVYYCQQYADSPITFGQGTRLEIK", "kd var/kd wt": 0.7}
{"binder": "N32K (antibody, V domains shown, GC1008 IgG4 variant) VH: QVQLVQSGAEVKKPGSSVKVSCKASGYTFSSKVISWVRQAPGQGLEWMGGVIPIVDIANYAQRFKGRVTITADESTSTTYMELSSLRSEDTAVYYCASTLGLVLDAMDYWGQGTLVTVSS VL: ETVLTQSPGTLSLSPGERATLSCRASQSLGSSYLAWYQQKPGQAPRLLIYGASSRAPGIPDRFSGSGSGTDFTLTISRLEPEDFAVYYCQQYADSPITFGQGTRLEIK", "kd var/kd wt": 1.8}
{"binder": "D56I (antibody, V domains shown, GC1008 IgG4 variant) VH: QVQLVQSGAEVKKPGSSVKVSCKASGYTFSSNVISWVRQAPGQGLEWMGGVIPIVIIANYAQRFKGRVTITADESTSTTYMELSSLRSEDTAVYYCASTLGLVLDAMDYWGQGTLVTVSS VL: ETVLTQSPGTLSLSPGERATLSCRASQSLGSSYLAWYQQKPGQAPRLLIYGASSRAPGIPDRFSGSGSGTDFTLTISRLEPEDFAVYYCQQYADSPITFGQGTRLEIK", "kd var/kd wt": 1.4}

// data source = patent US20170342144A1
